target: T1, p5 peptide of EGFL7 (human); assay: SPR (Biacore), IgG over immobilized P5 peptide at 37 C, n = 2
T1 construct: also called Peptide P5
T1 peptide: RACSTYRTIYRTA
quantity: kon (M⁻¹ s⁻¹)
Give bare numbers, in M⁻¹ s⁻¹.

Required: kon, one value per binder below.
1. 18F7.v6A IgG (antibody, V domains shown, IgG; Variant of 18F7.v6) VH: EVQLVESGGGLVQPGGSLRLSCAASGYTFIDYYMNWVRQAPGKGLEWVGDINLDNGGTHYNQKFKGRFTISRDKSKNTAYLQMNSLRAEDTAVYYCAREGVYHDYDDYAMDYWGQGTLVTVSS VL: DIQMTQSPSSLSASVGDRVTITCRTSQSLVHISGITYLHWYQQKPGKAPKLLIYRVSNRFSGVPSRFSGSGSGTDFTLTISSLQPEDFATYYCGQSTHVPLTFGQGTKVEIK
2. 18F7.v6D IgG (antibody, V domains shown, IgG; Variant of 18F7.v6) VH: EVQLVESGGGLVQPGGSLRLSCAASGYTFIDYYMNWVRQAPGKGLEWVGDINLDSGGTHYNQKFKGRFTISRDKSKNTAYLQMNSLRAEDTAVYYCAREGVYHDYDDYAMDYWGQGTLVTVSS VL: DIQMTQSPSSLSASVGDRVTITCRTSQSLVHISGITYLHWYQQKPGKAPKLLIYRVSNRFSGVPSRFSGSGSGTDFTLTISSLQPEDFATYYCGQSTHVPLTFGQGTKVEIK
3. 18F7.v6B IgG (antibody, V domains shown, IgG; Variant of 18F7.v6) VH: EVQLVESGGGLVQPGGSLRLSCAASGYTFIDYYMNWVRQAPGKGLEWVGDINLDSGGTHYNQKFKGRFTISRDKSKNTAYLQMNSLRAEDTAVYYCAREGVYHDYDDYAMDYWGQGTLVTVSS VL: DIQMTQSPSSLSASVGDRVTITCRTSQSLVHINGITYLHWYQQKPGKAPKLLIYRVSNRFSGVPSRFSGSGSGTDFTLTISSLQPEDFATYYCGQSTHVPLTFGQGTKVEIK
4. 18F7.v6C IgG (antibody, V domains shown, IgG; Variant of 18F7.v6) VH: EVQLVESGGGLVQPGGSLRLSCAASGYTFIDYYMNWVRQAPGKGLEWVGDINLDNSGTHYNQKFKGRFTISRDKSKNTAYLQMNSLRAEDTAVYYCAREGVYHDYDDYAMDYWGQGTLVTVSS VL: DIQMTQSPSSLSASVGDRVTITCRTSQSLVHINGITYLHWYQQKPGKAPKLLIYRVSNRFSGVPSRFSGSGSGTDFTLTISSLQPEDFATYYCGQSTHVPLTFGQGTKVEIK

Response:
[373000, 313000, 196000, 124000]
